Target: his-labeled human IL-13 (immunogen A) (human) (UniProt P35225)
Assay: SPR (Biacore), antibody captured by anti-human Fc, immunogen A as analyte
Quantity Kind: koff (s⁻¹)
Report as a plain number; the unit s⁻¹ is understood.

1) c29D9H8 (mouse-human chimeric IL-13 antibody) (antibody, V domains shown) VH: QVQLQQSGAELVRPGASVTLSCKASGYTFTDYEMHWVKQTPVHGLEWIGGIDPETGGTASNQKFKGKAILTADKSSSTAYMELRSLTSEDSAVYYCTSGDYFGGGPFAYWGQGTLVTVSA VL: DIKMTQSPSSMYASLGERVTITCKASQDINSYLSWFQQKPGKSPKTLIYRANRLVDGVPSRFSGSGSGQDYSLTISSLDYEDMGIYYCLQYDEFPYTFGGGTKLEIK: 0.000813
2) c70F10A10 (mouse-human chimeric IL-13 antibody) (antibody, V domains shown) VH: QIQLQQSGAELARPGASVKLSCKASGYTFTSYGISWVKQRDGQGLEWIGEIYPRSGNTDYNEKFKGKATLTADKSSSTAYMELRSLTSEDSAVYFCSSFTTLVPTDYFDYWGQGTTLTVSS VL: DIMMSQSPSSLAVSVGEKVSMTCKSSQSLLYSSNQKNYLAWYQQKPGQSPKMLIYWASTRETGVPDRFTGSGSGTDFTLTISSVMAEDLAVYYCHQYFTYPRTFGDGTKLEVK: 0.000271
3) c35E2C3 (mouse-human chimeric IL-13 antibody) (antibody, V domains shown) VH: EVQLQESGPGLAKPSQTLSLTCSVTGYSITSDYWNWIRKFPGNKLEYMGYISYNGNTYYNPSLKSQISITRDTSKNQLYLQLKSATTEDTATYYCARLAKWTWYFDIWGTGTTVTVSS VL: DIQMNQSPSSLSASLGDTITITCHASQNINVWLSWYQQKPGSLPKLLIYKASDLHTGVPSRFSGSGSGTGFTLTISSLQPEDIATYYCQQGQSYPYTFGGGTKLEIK: 0.00026

Field: next binder
(Q) Read the entry c35H6E1 (mouse-human chimeric IL-13 antibody) (antibody, V domains shown) VH: QVTLKESGPGILQSSQTLSLTCSFSGFSLSTSNMGVSWIRQPSGKGLEWLAHIYWDDDKRYNPSLESRLTISKDTSRNQVFLKITSVDTADSATYYCARRTNYFSTRDYFDYWGQGTTLTVSS VL: DIQMTQSPASLSVSVGETVTITCRASENIYSNLVWYQQKQGKSPQLLVYAATKLADGVPSRFSGSGSGTQYSLKINSLQSEDFGSYYCQHFWGFPWTFGGGTKLEIK and write its reported koff.
(A) 0.000445
